# MEASUREMENT_DESCRIPTION: folding stability dG unfold from trypsin proteolysis; higher = more stable
QUANTITY_MEASURED: folding stability dG unfold (kcal/mol)
Answers are plain numbers, in kcal/mol.

Below are worked cases with known answers.
SAGGGFSVSTGTLTDPVTGKPITLTVTNLPDGVSRVTVTLEDGKTFEFTFPANNPPTPEQVAEAVKAFSAGG [r13_492_TrMRF] | 3.64
SADLAKNIAKKLNPDIKDVQIKDIELQPNPDNGYPVIKVELEVKMNDGPYKKSIWFMPNGFQIKIQPVPSAG [r14_397_TrROS] | 0.783
SAGGSAGGSAGGDKDDKPPVRTVTVMHMFFDENGWLVKFDITFTANGQIEIDWGPVPLPSAGGSAGGSAGGS [r10_682_TrROS] | 2.96

Pending sequence:
Per the records, this sequence ( SAGGSAGGSAMKIVKIEVVENEDGEKYVKIEIELENGEKIEITLPLEELENMSLEELLKLLKSAGGSAGGSA [r18_129_TrROS_Hall] ) has folding stability dG unfold equal to 2.94
